# System: MCF10A
# assay: percent viability (nuclei count relative to siNT); higher = more viable cells
# condition: 20 nM; 72 h
Here the recorded percent viability is given for each entry.
Respond with the bare value in %.

Inquiry: Lookup: percent viability / MCF10A / AGGGACUGCCUUAGGAGAAAGUU [hsa-miR-3199]
Reply text: 57.4

Inquiry: // next record AAAAUUUCUUUCACUACUUAG [hsa-miR-3606-3p]
Reply text: 54

Inquiry: // next record CACGGCAAAAGAAACAAUCCA [hsa-miR-4445-3p]
Reply text: 52.2

Inquiry: // next record GCCCAGGACUUUGUGCGGGGUG [hsa-miR-6840-3p]
Reply text: 117

Inquiry: // next record CUAGGGGGUUUGCCCUUG [hsa-miR-4278]
Reply text: 13.5

Inquiry: // next record AGGACUGAUCCUCUCGGGCAGG [hsa-miR-4740-5p]
Reply text: 24.1
